Target: wildtype HIV-1 protease (Human immunodeficiency virus type 1 group M subtype B, UniProt P04585)
Construct: preincubated with the HIV-1 protease (wild type) enzyme in assay buffer; made in house; host or cells: Escherichia coli
Assay: Assay for inhibition of microbial expressed HIV protease (Pepcleav)
Format: biochemical
Details: wild type HIV-1 protease 20 pM, peptide substrate 400 micromolar, pH 5.5; mean of at least two independent experiments
attribute measured: pIC50
Please treat pIC50 as minus the base-10 logarithm of the molar concentration.

Guide cases for pIC50, answers given:
smiles representation	pIC50
COC(=O)N[C@H](C(=O)Nc1ccccc1CC[C@@H]1CNC[C@@H](COc2ccc(Cc3ccccc3)cc2)O1)C(c1ccccc1)c1ccccc1	7.62
COC(=O)N[C@H](C(=O)Nc1nccnc1CC[C@@H]1CNC[C@@H](CSc2ccc(Cl)cc2)O1)C(c1ccccc1)c1ccccc1	7.57
NC(=O)OC[C@@H]1CNC[C@@H](CCc2c(F)cncc2NC(=O)[C@@H](N)C(c2ccc(F)cc2)c2ccc(F)cc2)O1	6.92
COC(=O)N[C@H](C(=O)Nc1ccccc1CC[C@@H]1CNC[C@@H](CSc2cccc(C#N)c2)O1)C(c1ccccc1)c1ccccc1	8.68
COC(=O)N[C@H](C(=O)Nc1ccccc1CC[C@@H]1CNC[C@@H](COc2cccc3nn[nH]c23)O1)C(c1ccccc1)c1ccccc1	7.17

Please look at the following molecule next.
The recorded pIC50 for entry COC(=O)N[C@H](C(=O)Nc1ccccc1CC[C@@H]1CNC[C@@H](CSc2ccc(Cl)cc2Cl)O1)C(c1ccccc1)c1ccccc1 equals 8.82

* * *

Biological target: wildtype HIV-1 protease (Human immunodeficiency virus type 1 group M subtype B, UniProt P04585)
Construct: preincubated with the HIV-1 protease (wild type) enzyme in assay buffer; made in house; host or cells: Escherichia coli
Assay: Assay for inhibition of microbial expressed HIV protease (Pepcleav)
Type: biochemical
Conditions: wild type HIV-1 protease 20 pM, peptide substrate 400 micromolar, pH 5.5; mean of at least two independent experiments
Reported IC50 values for the following compounds.
In your response, put the unit directly after the numeric value.

compound	IC50
COC(=O)N[C@H](C(=O)Nc1ccccc1CC[C@@H]1CNC[C@@H](/C=C/c2ccc(S(C)(=O)=O)cc2)O1)C(c1ccccc1)c1ccccc1 [Example 61]	5.9 nM

// field: IC50; key: COC(=O)N[C@H](C(=O)Nc1ccccc1CC[C@@H]1CNC[C@@H](COc2ccc(F)cc2)O1)C(c1ccccc1)c1ccccc1 [Example 46] ; value = 23 nM

Measured IC50, COC(=O)N[C@H](C(=O)Nc1ccccc1CCC1CNC[C@@H](CSc2ccc(Cl)cc2)O1)C(c1ccccc1)c1ccccc1 (stereo partly drawn) [Example 6] : 1.9 nM

* * *

Biological target: wildtype HIV-1 protease (Human immunodeficiency virus type 1 group M subtype B)
Construct: preincubated with the HIV-1 protease (wild type) enzyme in assay buffer; made in house; host or cells: Escherichia coli
Assay: Assay for inhibition of microbial expressed HIV protease (Pepcleav)
Type: biochemical
Details: wild type HIV-1 protease 20 pM, peptide substrate 400 micromolar, pH 5.5; mean of at least two independent experiments
pIC50: −log10 of the molar value.
So basically: pIC50 at 8 or higher? That is TRUE. Lower than 8? That is FALSE.

Examples from the recorded data:
compound	assigned label
N[C@H](C(=O)Nc1cncc(F)c1CC[C@@H]1CNCC2(CCCC2)O1)C(c1ccccc1)c1ccccc1 [Example 131]	FALSE
COC(=O)N[C@H](C(=O)Nc1nccnc1CC[C@@H]1CNC[C@@H](COc2ccc(C#N)cc2)O1)C(c1ccccc1)c1ccccc1 [Example 84]	FALSE
COC(=O)N[C@H](C(=O)Nc1ccccc1CC[C@@H]1CNC[C@@H](CSc2ccc(Br)cc2)O1)C(c1ccccc1)c1ccccc1 [Example 8]	TRUE
COC(=O)N[C@@H](C(=O)Nc1ccccc1CC[C@@H]1CNC[C@@H](CSc2ccc(Cl)cc2)O1)[C@H](c1ccccc1)c1ccncc1 [Example 70]	TRUE
COC(=O)N[C@H](C(=O)Nc1ccccc1CC[C@H]1CNC[C@@H](CS(=O)(=O)c2ccc(Cl)cc2)O1)C(c1ccccc1)c1ccccc1 [Example 109]	FALSE

Task: Does pIC50 meet or surpass 8 for COC(=O)N[C@H](C(=O)Nc1ccccc1CC[C@@H]1CNC[C@@H](/C=C/c2ccc(Cl)cc2)O1)C(c1ccccc1)c1ccccc1 [Example 60] ?
Output: FALSE

Task: Entry COC(=O)N[C@H](C(=O)Nc1ccccc1CC[C@@H]1CNC[C@@H](COc2ccc3cc[nH]c3c2)O1)C(c1ccccc1)c1ccccc1 [Example 39] : is its pIC50 no less than 8?
Output: FALSE
